# System: Aorta
# assay_remarks: Vasorelaxant activity against U46619-induced contraction in endothelium-denuded Sprague-Dawley rat thoracic aorta
# Assay type: functional, tissue-based
# measurement_parameters: Rattus norvegicus, Sprague-Dawley, Thoracic aorta
observed_property: EC50 (µM)

Illustrative cases are given below, each with its answer.
{"columns": ["smiles_structure", "EC50 [µM]"],
 "data": [
  ["O=c1c(O)c(-c2ccc(O)cc2)oc2ccccc12", 3.16],
  ["O=c1c(O)c(-c2ccc(O)c(O)c2)oc2ccccc12", 3.02]
]}

P = COc1cccc(-c2oc3ccccc3c(=O)c2O)c1
Q = COc1cc(-c2oc3ccccc3c(=O)c2O)ccc1O
Req: Return label of the item with the larger EC50. Candidates: P , Q . # answer = label of selected item
Resp: P
